The origin of these recorded values is ChEMBL document CHEMBL1811879.

Quick reference for pKi among some compounds
# test target: Solute carrier family 15 member 2 (Homo sapiens, UniProt Q16348)
# test description: Binding affinity to human PepT2 in SKTP cells
Where a SMILES comes first, the peptide text is derived from it.
# log scale: pKi equals minus log10 of the concentration in mol/L

Record request: pKi value, item CC(C)[C@H](N)C(=O)N1CCC[C@H]1C(=O)O (H-Val-Pro-OH)
4.41

###

# test target: Solute carrier family 15 member 2 (Homo sapiens)
# Sequence (Q16348 whole entry): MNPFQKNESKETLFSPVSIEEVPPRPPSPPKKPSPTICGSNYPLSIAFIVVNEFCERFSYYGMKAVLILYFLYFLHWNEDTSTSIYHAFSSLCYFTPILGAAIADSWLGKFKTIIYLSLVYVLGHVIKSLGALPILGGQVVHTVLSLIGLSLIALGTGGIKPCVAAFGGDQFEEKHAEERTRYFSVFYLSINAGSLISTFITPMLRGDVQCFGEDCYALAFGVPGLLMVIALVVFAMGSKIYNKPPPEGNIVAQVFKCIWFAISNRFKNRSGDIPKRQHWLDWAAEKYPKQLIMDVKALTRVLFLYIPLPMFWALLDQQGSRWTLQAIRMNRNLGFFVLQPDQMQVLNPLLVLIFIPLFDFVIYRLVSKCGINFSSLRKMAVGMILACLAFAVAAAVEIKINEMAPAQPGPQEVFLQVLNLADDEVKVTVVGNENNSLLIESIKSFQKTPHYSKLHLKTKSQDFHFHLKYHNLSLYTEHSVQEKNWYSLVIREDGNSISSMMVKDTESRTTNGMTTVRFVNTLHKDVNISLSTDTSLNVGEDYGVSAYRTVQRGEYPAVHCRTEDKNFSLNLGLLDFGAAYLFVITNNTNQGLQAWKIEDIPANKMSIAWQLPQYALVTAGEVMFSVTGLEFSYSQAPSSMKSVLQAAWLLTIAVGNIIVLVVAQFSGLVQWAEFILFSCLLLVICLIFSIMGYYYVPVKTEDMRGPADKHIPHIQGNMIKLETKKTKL
# test description: Binding affinity to human PepT2 in SKTP cells
Where a SMILES comes first, the peptide text is derived from it.
reported metric: Ki

Observe how each entry below is paired with its result.
- compound: "N[C@@H](Cc1ccc(O)cc1)C(=O)N[C@@H](Cc1ccccc1)C(=O)O (H-Tyr-Phe-OH)"
  Ki: "9 µM"
- compound: "C[C@H](NC(=O)[C@@H](N)Cc1ccc(O)cc1)C(=O)O"
  Ki: "4.4 µM"
- compound: "C=N[C@@H](C(=O)N[C@@H]1C(=O)N2[C@@H]1SC(C)(C)[C@@H]2C(=O)O)c1ccccc1"
  Ki: "730 µM"

Could you now look at the following compound, please?
Record request: Ki value, item `CC1=C(C(=O)O)N2C(=O)[C@@H](NC(=O)[C@H](N)c3ccc(O)cc3)[C@H]2SC1`
3 µM

###

# test target: Solute carrier family 15 member 2 (Homo sapiens)
# Sequence (Q16348 whole entry): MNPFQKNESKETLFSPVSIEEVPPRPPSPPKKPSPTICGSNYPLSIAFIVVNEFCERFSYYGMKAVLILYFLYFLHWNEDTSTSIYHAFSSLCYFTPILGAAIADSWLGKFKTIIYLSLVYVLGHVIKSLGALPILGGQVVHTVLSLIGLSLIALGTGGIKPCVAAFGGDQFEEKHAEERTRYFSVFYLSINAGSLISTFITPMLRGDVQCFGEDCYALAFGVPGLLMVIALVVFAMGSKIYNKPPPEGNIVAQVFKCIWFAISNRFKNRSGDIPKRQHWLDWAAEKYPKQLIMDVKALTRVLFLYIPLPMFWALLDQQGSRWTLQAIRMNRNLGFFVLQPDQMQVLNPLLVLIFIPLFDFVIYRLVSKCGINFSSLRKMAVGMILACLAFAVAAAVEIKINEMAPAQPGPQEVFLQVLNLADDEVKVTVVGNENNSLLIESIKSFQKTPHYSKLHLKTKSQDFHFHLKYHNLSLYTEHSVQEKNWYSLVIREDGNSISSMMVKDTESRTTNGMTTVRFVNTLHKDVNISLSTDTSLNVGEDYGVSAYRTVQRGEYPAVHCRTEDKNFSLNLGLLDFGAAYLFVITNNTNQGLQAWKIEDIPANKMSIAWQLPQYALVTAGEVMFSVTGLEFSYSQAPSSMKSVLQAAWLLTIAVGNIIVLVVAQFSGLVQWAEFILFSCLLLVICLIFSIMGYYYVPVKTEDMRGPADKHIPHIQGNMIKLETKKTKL
# test description: Binding affinity to human PepT2 in SKTP cells
pKi: −log10 of the molar value. Where a SMILES comes first, the peptide text is derived from it.
Rule: 1 for pKi not less than 3, 0 for anything less.

Solved entries:
- compound: "CC(=O)OCC1=C(C(=O)O)N2C(=O)[C@@H](NC(=O)Cc3cccs3)[C@H]2SC1 [CEPHALOTHIN]"
  test target: "Solute carrier family 15 member 2 (Homo sapiens)"
  class: 0
- compound: "CC1(C)S[C@@H]2[C@H](NC(=O)[C@H](N)c3ccc(O)cc3)C(=O)N2[C@H]1C(=O)O [AMOXICILLIN]"
  test target: "Solute carrier family 15 member 2 (Homo sapiens)"
  class: 1
- compound: "NCC(=O)NCC(=O)O (H-Gly-Gly-OH)"
  test target: "Solute carrier family 15 member 2 (Homo sapiens)"
  class: 1

# bool: pKi of C[C@H](N)C(=O)N[C@@H](CCCCN)C(=O)O (H-Ala-Lys-OH) >= 3
1

# bool: pKi of CC1(C)S[C@@H]2[C@H](NC(=O)C3(N)CCCCC3)C(=O)N2[C@H]1C(=O)O [CYCLACILLIN] >= 3
1

# bool: pKi of CO[C@@]1(NC(=O)CSCC#N)C(=O)N2C(C(=O)O)=C(CSc3nnnn3C)CS[C@@H]21 [CEFMETAZOLE] >= 3
0

# bool: pKi of Cn1nnnc1SCC1=C(C(=O)O)N2C(=O)[C@@H](NC(=O)[C@H](O)c3ccccc3)[C@H]2SC1 [CEFAMANDOLE] >= 3
0

# bool: pKi of C[C@H](NC(=O)[C@@H](N)CCCCN)C(=O)O (H-Lys-Ala-OH) >= 3
1
